Quick reference: apparent Kd (screen) of the listed items.
EXPERIMENTAL TARGET: T1, TNFR1 (Homo sapiens, UniProt P19438)
T1 chain: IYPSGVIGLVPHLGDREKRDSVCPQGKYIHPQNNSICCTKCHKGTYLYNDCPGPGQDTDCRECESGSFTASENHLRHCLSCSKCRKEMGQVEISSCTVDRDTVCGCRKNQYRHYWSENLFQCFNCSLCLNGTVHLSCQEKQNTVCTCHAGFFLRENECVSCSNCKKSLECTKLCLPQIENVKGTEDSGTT
ASSAY SUMMARY: yeast display SC50

{"BINDER": "V100N (designed binder) MTLQELLREEALRRAEAEAFRYALELLAEKFPEQKEYLLDLAEEIESQIRSLSGVDVEDVRKFLDKEWAWVKELLAEHPAELAEVEAARAARLAELRAENEAKVAA", "VALUE UNITS": "nM", "apparent Kd (screen)": 0.593}
{"BINDER": "Y22G (designed binder) MTLQELLREEALRRAEAEAFRGALELLAEKFPEQKEYLLDLAEEIESQIRSLSGVDVEDVRKFLDKEWAWVKELLAEHPAELAEVEAARAARLAELRAEVEAKVAA", "VALUE UNITS": "nM", "apparent Kd (screen)": 0.653}
{"BINDER": "Q48L (designed binder) MTLQELLREEALRRAEAEAFRYALELLAEKFPEQKEYLLDLAEEIESLIRSLSGVDVEDVRKFLDKEWAWVKELLAEHPAELAEVEAARAARLAELRAEVEAKVAA", "VALUE UNITS": "nM", "apparent Kd (screen)": 2.73}
{"BINDER": "A102G (designed binder) MTLQELLREEALRRAEAEAFRYALELLAEKFPEQKEYLLDLAEEIESQIRSLSGVDVEDVRKFLDKEWAWVKELLAEHPAELAEVEAARAARLAELRAEVEGKVAA", "VALUE UNITS": "nM", "apparent Kd (screen)": 0.653}
